The measured values listed here are drawn from patent US7767659B2.

- System: DU-145
- measurement notes: Inhibition of cells growth by colorimetric assay (SRB)
- experimental conditions: read-out: DU145 LC50; DU145; SRB, 48 hours exposure
- Description: This form of the assay employs 96 well cell culture microplates of 9 mm diameter (Faircloth, 1988; Mosmann, 1983). Most of the cell lines are obtained from American Type Culture Collection (ATCC) derived from different human cancer types. […] The values for mean +/− SD of data from triplicate wells are calculated. Some parameters for cellular responses can be calculated: GI=growth inhibition, TGI=total growth inhibition (cytostatic effect) and LC=cell killing (cytotoxic effect).
assay metric: CC50 (nM)
Field: numeric (nM). Do not append units.

Asked: What CC50 value was documented for this molecule, COC1=C(C)C(=O)C2=C(C1=O)C1C3C4SCC(NC(C)=O)C(=O)OCC(c5c6c(c(C)c(OC(C)=O)c54)OCO6)N3C(O)C(C2)N1C (stereo not shown) [ET-637-quinone, ecteinascidin 637 quinone] ?
Given back: 15.3

---

- Test system: K-562
- measurement notes: Inhibition of cells growth by colorimetric assay (SRB)
- experimental conditions: Homo sapiens, K562, 48 h, read-out: K562 GI50
- Method: This form of the assay employs 96 well cell culture microplates of 9 mm diameter (Faircloth, 1988; Mosmann, 1983). Most of the cell lines are obtained from American Type Culture Collection (ATCC) derived from different human cancer types. […] The values for mean +/− SD of data from triplicate wells are calculated. Some parameters for cellular responses can be calculated: GI=growth inhibition, TGI=total growth inhibition (cytostatic effect) and LC=cell killing (cytotoxic effect).
assay metric: log10(GI50) (log10 of the value in nM)
Note the log scale: values are log10 of GI50 expressed in nM.

Asked: What log10(GI50) value was documented for this molecule, COc1cc2c(cc1O)CCN[C@]21CS[C@@H]2c3c(OC(C)=O)c(C)c4c(c3[C@H](COC1=O)N1[C@@H]2[C@H]2c3c(cc(C)c(OC)c3O)C[C@@H]([C@@H]1O)N2C)OCO4 [Et-743, ecteinascidin 743, reference compound] ?
Given back: -0.46

Asked: Now try COc1c(C)cc2c(c1O)[C@H]1N[C@@H](C2)[C@H](O)N2C1[C@@H]1SC[C@]3(NCCc4c3[nH]c3ccccc43)C(=O)OC[C@H]2c2c3c(c(C)c(OC(C)=O)c21)OCO3 (some centres unmarked) .
Given back: 0.59

Asked: Now try COc1c(C)cc2c(c1O)[C@H]1N[C@@H](C2)[C@H](C#N)N2C1[C@@H]1SCC(=O)C(=O)OC[C@H]2c2c3c(c(C)c(OC(C)=O)c21)OCO3 (some centres unmarked) .
Given back: 1.25

Asked: Now try CCCCCCCCCCCCCCCC(=O)NC1CS[C@@H]2c3c(OC(C)=O)c(C)c4c(c3[C@H](COC1=O)N1C2[C@@H]2N[C@@H](Cc3cc(C)c(OC)c(O)c32)[C@@H]1O)OCO4 (some centres unmarked) .
Given back: 2.29

Asked: Now try COc1c(C)cc2c(c1O)[C@H]1N[C@@H](C2)[C@H](O)N2C1[C@@H]1SCC(=O)C(=O)OC[C@H]2c2c3c(c(C)c(OC(C)=O)c21)OCO3 (some centres unmarked) .
Given back: 0.49

---

- Test system: K-562
- measurement notes: Inhibition of cells growth by colorimetric assay (SRB)
- experimental conditions: Homo sapiens, K562, 48 h, read-out: K562 GI50
Can you tell me log10 GI50 for the items I'm about to list?
Note the log scale: values are log10 of GI50 expressed in nM.

Asked: What log10 GI50 value was documented for this molecule, COc1ccc2[nH]c3c(c2c1)CCN[C@]31CS[C@@H]2c3c(OC(C)=O)c(C)c4c(c3[C@H](COC1=O)N1C2[C@@H]2N[C@@H](Cc3cc(C)c(OC)c(O)c32)[C@@H]1O)OCO4 (stereo partly drawn) ?
Given back: -0.07

Asked: Now try CCCCCCCC(=O)Oc1c(C)c2c(c3c1[C@H]1SC[C@]4(NCCc5cc(O)c(OC)cc54)C(=O)OC[C@@H]3N3C1[C@@H]1N[C@@H](Cc4cc(C)c(OC)c(O)c41)[C@@H]3C#N)OCO2 (stereo partly drawn) .
Given back: 0.65

Asked: Now try COc1c(C)cc2c(c1O)[C@H]1N[C@@H](C2)[C@H](C#N)N2C1[C@@H]1SC[C@]3(NCCc4c3[nH]c3ccc(C)cc43)C(=O)OC[C@H]2c2c3c(c(C)c(OC(C)=O)c21)OCO3 (stereo partly drawn) .
Given back: 0.29

Asked: Now try COc1cc2c(cc1O)CCN[C@]21CS[C@@H]2c3c(OC(=O)/C=C/c4ccccc4)c(C)c4c(c3[C@H](COC1=O)N1C2[C@@H]2N[C@@H](Cc3cc(C)c(OC)c(O)c32)[C@@H]1C#N)OCO4 (stereo partly drawn) .
Given back: 0.50

Asked: Now try COc1c(C)cc2c(c1O)[C@H]1N[C@@H](C2)[C@H](C#N)N2C1[C@@H]1SC[C@]3(NCCc4c3[nH]c3ccc(O)cc43)C(=O)OC[C@H]2c2c3c(c(C)c(OC(C)=O)c21)OCO3 (stereo partly drawn) .
Given back: 0.41

Asked: Now try C=CCN1[C@@H]2c3c(cc(C)c(OC)c3O)C[C@H]1[C@H](C#N)N1C2[C@@H]2SC[C@]3(NCCc4c3[nH]c3ccc(OC)cc43)C(=O)OC[C@H]1c1c3c(c(C)c(OC(C)=O)c12)OCO3 (stereo partly drawn) .
Given back: 0.84

Asked: Now try C=CCN1[C@@H]2c3c(cc(C)c(OC)c3O)C[C@H]1[C@H](C#N)N1C2[C@@H]2SC[C@]3(NCCc4cc(OC(=O)OC(C)(C)C)c(OC)cc43)C(=O)OC[C@H]1c1c3c(c(C)c(OC(=O)CCCCCCC)c12)OCO3 (stereo partly drawn) .
Given back: 2.71

Asked: Now try C=CCN1[C@@H]2c3c(cc(C)c(OC)c3OC(=O)OC(C)(C)C)C[C@H]1[C@H](C#N)N1C2[C@@H]2SC[C@]3(NCCc4cc(OC(=O)OC(C)(C)C)c(OC)cc43)C(=O)OC[C@H]1c1c3c(c(C)c(OC(C)=O)c12)OCO3 (stereo partly drawn) .
Given back: 1.25

Asked: Now try COc1cc2c(cc1O)CCN[C@]21CS[C@@H]2c3c(OC(=O)/C=C/c4ccccc4)c(C)c4c(c3[C@H](COC1=O)N1C2[C@@H]2N[C@@H](Cc3cc(C)c(OC)c(O)c32)[C@@H]1O)OCO4 (stereo partly drawn) .
Given back: 0.19

Asked: Now try C=CCN1[C@@H]2c3c(cc(C)c(OC)c3O)C[C@H]1[C@H](C#N)N1C2[C@@H]2SC[C@]3(NCCc4cc(OC(=O)OC(C)(C)C)c(OC)cc43)C(=O)OC[C@H]1c1c3c(c(C)c(O)c12)OCO3 (stereo partly drawn) .
Given back: 1.36

Asked: Now try C=CCN1[C@@H]2c3c(cc(C)c(OC)c3O)C[C@H]1[C@H](C#N)N1C2[C@@H]2SC[C@]3(NCCc4c3[nH]c3ccc(O)cc43)C(=O)OC[C@H]1c1c3c(c(C)c(OC(C)=O)c12)OCO3 (stereo partly drawn) .
Given back: 0.95

Asked: Now try C=CCN1[C@@H]2c3c(cc(C)c(OC)c3O)C[C@H]1[C@H](C#N)N1C2[C@@H]2SC[C@]3(NCCc4cc(O)c(OC)cc43)C(=O)OC[C@H]1c1c3c(c(C)c(OC(=O)/C=C/c4ccccc4)c12)OCO3 (stereo partly drawn) .
Given back: 1.58

---

- Test system: K-562
- measurement notes: Inhibition of cells growth by colorimetric assay (SRB)
- experimental conditions: read-out: K562 LC50; SRB assay, 48 hours exposure, K562, cell killing
assay metric: CC50

Asked: What CC50 value was documented for this compound, COc1c(C)cc2c(c1O)C1C3C4SCC(NC(C)=O)C(=O)OCC(c5c6c(c(C)c(OC(C)=O)c54)OCO6)N3C(C#N)C(C2)N1C(C)=O (stereo not shown) [compound 35] ?
Given back: 9.77 µM

---

- Test system: LNCaP
- measurement notes: Inhibition of cells growth by colorimetric assay (SRB)
- experimental conditions: read-out: LNCAP LC50; LNCAP; SRB, 48 hours exposure
assay metric: CC50

Asked: What CC50 value was documented for this molecule, COC1=C(C)C(=O)C2=C(C1=O)C1C3C4SCC(NC(C)=O)C(=O)OCC(c5c6c(c(C)c(OC(C)=O)c54)OCO6)N3C(O)C(C2)N1C (stereo not shown) ?
Given back: 7.44 nM

---

- System: LNCaP
- measurement notes: Inhibition of cells growth by colorimetric assay (SRB)
- experimental conditions: Homo sapiens, LNCaP, 48 h, read-out: LNCAP GI50
assay metric: GI50 (nM)
Field: numeric (nM). Do not append units.

Asked: What GI50 value was documented for this compound, C=CCN1[C@@H]2c3c(cc(C)c(OC)c3O)C[C@H]1[C@H](C#N)N1C2[C@@H]2SC[C@]3(NCCc4c3[nH]c3ccc(OC)cc43)C(=O)OC[C@H]1c1c3c(c(C)c(OC(C)=O)c12)OCO3 (some centres unmarked) ?
Given back: 12.2

Asked: Now try COc1c(C)cc2c(c1O)[C@H]1N[C@@H](C2)[C@H](C#N)N2C1[C@@H]1SCC(=O)C(=O)OC[C@H]2c2c3c(c(C)c(OC(C)=O)c21)OCO3 (some centres unmarked) .
Given back: 5.96

Asked: Now try COc1c(C)cc2c(c1O)[C@H]1N[C@@H](C2)[C@H](O)N2C1[C@@H]1SC[C@]3(NCCc4c3[nH]c3ccccc43)C(=O)OC[C@H]2c2c3c(c(C)c(OC(C)=O)c21)OCO3 (some centres unmarked) .
Given back: 2.86

Asked: Now try C=CCN1[C@@H]2c3c(cc(C)c(OC)c3OC(=O)OC(C)(C)C)C[C@H]1[C@H](C#N)N1C2[C@@H]2SC[C@]3(NCCc4cc(OC(=O)OC(C)(C)C)c(OC)cc43)C(=O)OC[C@H]1c1c3c(c(C)c(OC(C)=O)c12)OCO3 (some centres unmarked) .
Given back: 3.83

Asked: Now try COc1cc2c(cc1O)CCN[C@]21C[S+]([O-])[C@@H]2c3c(OC(C)=O)c(C)c4c(c3[C@H](COC1=O)N1C2C2c3c(cc(C)c(OC)c3O)C[C@@H]([C@@H]1O)N2C)OCO4 (some centres unmarked) [Et-759B] .
Given back: 4.64
